Molecular target: T1, Recombinant Human DLL4 (R&D Systems Cat#1506-D4/CF) (human, UniProt Q9NR61 27-524)
T1 construct: also called delta-like protein 4; Delta-like 4
Experiment: ECL (MSD) multispot binding assay, immobilised recombinant human DLL4, Fab at 0.04 uM

- BINDER: "Fab VH5-51_IGHD5-18*01>3_IGHJ4*01 G100K/G104T (H:KT) & V3-4_IGLJ1*01 V91A (Fab, V domains shown, Fab; CH1 (His6/Flag tags, plasmid A) and lambda CL (plasmid E) as for the parent) VH: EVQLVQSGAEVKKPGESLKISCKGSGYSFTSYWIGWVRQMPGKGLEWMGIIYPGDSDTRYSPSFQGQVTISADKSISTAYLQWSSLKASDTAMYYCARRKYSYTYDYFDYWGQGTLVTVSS VL: QTVVTQEPSFSVSPGGTVTLTCGLSSGSVSTSYYPSWYQQTPGQAPRTLIYSTNTRSSGVPDRFSGSILGNKAALTITGAQADDESDYYCALYMGSGISYVFGTGTKVTVL"
  ECL Signal/Noise: 48.5
